For each of the binders below, state its pKd.
Target: T1, human CD33 extracellular domain (human, UniProt P20138 18-259)
T1 construct: soluble monomeric ECD; also called human CD33 ECD; hCD33
Assay: BLI Octet, IgG loaded;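 also: IgGs captured on AHC biosensors, exposed to 100 nM antigen for 3 min association then 3 min dissociation in buffer, kinetics fitted with a 1:1 binding model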
// pKd is dimensionless: -log10 of concentration (M)

The binder listed as ADI-11839 IgG (antibody, V domains shown, IgG; also called Ab28) VH: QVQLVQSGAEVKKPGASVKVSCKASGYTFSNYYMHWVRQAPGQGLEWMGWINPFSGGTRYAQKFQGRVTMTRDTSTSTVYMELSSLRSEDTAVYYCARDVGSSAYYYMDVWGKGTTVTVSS VL: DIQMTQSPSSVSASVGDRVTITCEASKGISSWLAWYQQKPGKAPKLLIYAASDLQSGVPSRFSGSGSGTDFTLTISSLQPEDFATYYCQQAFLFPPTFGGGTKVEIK shows pKd equal to 8.61

Looking up ADI-11809 IgG (antibody, V domains shown, IgG; also called Ab6) VH: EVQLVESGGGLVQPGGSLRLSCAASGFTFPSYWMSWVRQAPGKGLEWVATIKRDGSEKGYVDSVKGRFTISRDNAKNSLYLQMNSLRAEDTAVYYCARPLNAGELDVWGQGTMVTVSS VL: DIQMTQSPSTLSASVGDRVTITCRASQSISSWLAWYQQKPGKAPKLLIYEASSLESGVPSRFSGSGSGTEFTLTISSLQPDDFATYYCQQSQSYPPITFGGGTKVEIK , I found its pKd recorded as 9.50

Please fill in: pKd reported for ADI-11812 IgG (antibody, V domains shown, IgG; also called Ab24) VH: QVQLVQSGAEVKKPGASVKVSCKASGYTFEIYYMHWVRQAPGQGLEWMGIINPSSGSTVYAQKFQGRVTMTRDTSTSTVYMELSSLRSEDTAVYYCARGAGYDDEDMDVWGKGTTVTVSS VL: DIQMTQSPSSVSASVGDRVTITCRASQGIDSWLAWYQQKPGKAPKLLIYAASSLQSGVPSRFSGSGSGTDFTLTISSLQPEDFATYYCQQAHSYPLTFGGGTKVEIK = 8.72

Item: ADI-11815 IgG (antibody, V domains shown, IgG; also called Ab7) VH: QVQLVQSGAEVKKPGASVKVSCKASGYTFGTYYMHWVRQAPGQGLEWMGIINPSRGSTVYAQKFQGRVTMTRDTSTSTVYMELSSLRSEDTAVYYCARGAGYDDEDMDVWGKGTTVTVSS VL: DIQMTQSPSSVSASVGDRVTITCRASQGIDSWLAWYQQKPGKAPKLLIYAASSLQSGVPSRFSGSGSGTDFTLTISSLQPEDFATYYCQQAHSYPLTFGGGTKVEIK | pKd: 8.84

Given item ADI-11776 IgG (antibody, V domains shown, IgG; also called Ab3; H76) VH: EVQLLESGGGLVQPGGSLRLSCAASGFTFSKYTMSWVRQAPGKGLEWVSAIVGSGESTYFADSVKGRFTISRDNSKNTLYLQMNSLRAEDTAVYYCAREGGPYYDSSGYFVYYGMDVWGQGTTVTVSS VL: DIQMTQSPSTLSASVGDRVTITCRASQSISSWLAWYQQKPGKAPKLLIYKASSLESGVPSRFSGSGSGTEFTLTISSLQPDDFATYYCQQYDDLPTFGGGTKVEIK , the value recorded as its pKd is 9.53
